# TESTED SYSTEM: human P2X3 receptors (Homo sapiens)
# Construct: expressed in transfected cells
# Sequence (P56373 whole entry): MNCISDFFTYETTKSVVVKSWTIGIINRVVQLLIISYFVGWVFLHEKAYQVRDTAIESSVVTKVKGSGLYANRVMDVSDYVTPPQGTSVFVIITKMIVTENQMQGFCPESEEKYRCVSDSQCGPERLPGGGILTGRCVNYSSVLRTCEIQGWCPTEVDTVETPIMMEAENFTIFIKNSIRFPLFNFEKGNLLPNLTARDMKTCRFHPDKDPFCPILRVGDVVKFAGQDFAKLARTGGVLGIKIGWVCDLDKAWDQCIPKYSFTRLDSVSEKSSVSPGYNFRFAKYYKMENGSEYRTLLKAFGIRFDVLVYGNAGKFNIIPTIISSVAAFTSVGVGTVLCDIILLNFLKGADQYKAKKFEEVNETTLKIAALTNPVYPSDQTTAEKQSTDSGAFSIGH
# METHOD NOTES: Whole-cell patch-clamp concentration-activation, HEK293 cells stably expressing hP2X3
# Format: cell-based
# RUN CONDITIONS: hP2X3, Hill coefficient of concentration-activation fit
EXPERIMENTAL ENDPOINT: Hill

compound="COCC[N+]1=C(C=CC=C2N(CCCCCC(=O)NCCCCCCSc3nc(N)c4ncn(C5OC(COP(=O)(O)OP(=O)(O)OP(=O)(O)O)C(O)C5O)c4n3)c3ccc(S(=O)(=O)O)cc3C2(C)C)C(C)(C)c2cc(S(=O)(=O)[O-])ccc21 (stereo not shown) [fATP, 2-[DY-547P1]-AHT-ATP]" result_value=1.6
compound=Nc1ncnc2c1ncn2[C@@H]1O[C@H](COP(=O)(O)CP(=O)(O)OP(=O)(O)O)[C@@H](O)[C@H]1O result_value=1.6
compound="COCC[N+]1=C(C=CC=C2N(CCCCCC(=O)NCCCCCCSc3nc(N)c4ncn(C5OC(COP(=O)(O)CP(=O)(O)OP(=O)(O)O)C(O)C5O)c4n3)c3ccc(S(=O)(=O)O)cc3C2(C)C)C(C)(C)c2cc(S(=O)(=O)[O-])ccc21 (stereo not drawn) [α,βMe-fATP, 2-[DY-547P1]-AHT-α,βMe-ATP]" result_value=3.5
compound=Nc1ncnc2c1ncn2[C@@H]1O[C@H](COP(=O)(O)OP(=O)(O)OP(=O)(O)O)[C@@H](O)[C@H]1O result_value=1.3
